test-target: Phosphatidylinositol 4,5-bisphosphate 3-kinase catalytic subunit gamma isoform (Homo sapiens, UniProt P48736)
Sequence (P48736 whole entry, canonical isoform): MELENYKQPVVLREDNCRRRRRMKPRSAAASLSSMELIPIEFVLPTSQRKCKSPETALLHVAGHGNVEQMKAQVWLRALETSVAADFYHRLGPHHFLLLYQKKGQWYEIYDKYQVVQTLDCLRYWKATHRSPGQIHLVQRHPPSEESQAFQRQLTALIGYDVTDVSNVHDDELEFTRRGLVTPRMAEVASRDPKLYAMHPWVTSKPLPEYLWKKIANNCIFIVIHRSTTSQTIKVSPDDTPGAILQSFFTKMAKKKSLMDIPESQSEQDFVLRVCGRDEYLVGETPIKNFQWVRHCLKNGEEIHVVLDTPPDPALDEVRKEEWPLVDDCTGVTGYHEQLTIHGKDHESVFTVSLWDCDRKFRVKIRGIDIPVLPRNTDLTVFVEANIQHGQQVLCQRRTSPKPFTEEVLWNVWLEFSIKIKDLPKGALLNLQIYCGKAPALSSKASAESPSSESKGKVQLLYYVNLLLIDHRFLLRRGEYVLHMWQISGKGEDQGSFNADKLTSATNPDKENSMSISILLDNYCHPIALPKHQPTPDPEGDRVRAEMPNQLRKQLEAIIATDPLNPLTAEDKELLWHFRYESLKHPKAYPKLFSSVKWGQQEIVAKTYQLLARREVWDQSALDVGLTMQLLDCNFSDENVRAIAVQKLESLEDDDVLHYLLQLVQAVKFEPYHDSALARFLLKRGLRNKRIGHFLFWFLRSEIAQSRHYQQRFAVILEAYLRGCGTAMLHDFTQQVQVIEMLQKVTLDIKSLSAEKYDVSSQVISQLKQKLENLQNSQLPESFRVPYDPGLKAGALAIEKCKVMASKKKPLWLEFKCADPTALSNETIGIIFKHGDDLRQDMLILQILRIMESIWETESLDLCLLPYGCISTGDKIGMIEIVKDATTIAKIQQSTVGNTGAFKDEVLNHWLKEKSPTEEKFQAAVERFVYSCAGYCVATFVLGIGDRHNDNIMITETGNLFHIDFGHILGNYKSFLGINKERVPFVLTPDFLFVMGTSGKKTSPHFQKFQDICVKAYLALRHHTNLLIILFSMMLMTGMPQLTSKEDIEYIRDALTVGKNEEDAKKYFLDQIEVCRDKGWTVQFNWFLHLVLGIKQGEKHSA
assay-text: Inhibition of PI3Kgamma in human THP-1 cells assessed as reduction in Akt phosphorylation at Ser473 residue
# Fulfilled = IC50 below 300 nM (exclusive); Not fulfilled = IC50 at/above 300 nM

Worked examples, 4 compounds total:
>  <smiles-structure>
CCCOCCNC(=O)Nc1nc(C)c(C#Cc2ccncc2)s1

>  <category>
Fulfilled

$$$$
>  <smiles-structure>
COCCNC(=O)Nc1nc(C)c(C#Cc2ccncc2)s1

>  <category>
Not fulfilled

$$$$
>  <smiles-structure>
Cc1nc(NC(=O)NCCOCC2CC2)sc1C#Cc1cnc2ncccc2c1

>  <category>
Not fulfilled

$$$$
>  <smiles-structure>
COc1cc(C#Cc2sc(NC(=O)NCCOCC3CC3)nc2C)cnc1OC

>  <category>
Fulfilled

$$$$

Exam item: Please state whether IC50 is below 300 nM for `Cc1nc(NC(=O)NCCOCC2CC2)sc1C#Cc1ccnc2ccccc12`
Marked response: Fulfilled

Exam item: Decide: IC50 of `Cc1nc(NC(=O)NCCOCC2CC2)sc1C#Cc1ccnc(F)c1` strictly below 300 nM?
Marked response: Not fulfilled

Exam item: Would you kindly verify if IC50 of `Cc1nc(NC(=O)NCCc2cn(CC(F)F)cn2)sc1C#Cc1cccnc1` is strictly less than 300 nM?
Marked response: Fulfilled

Exam item: I wonder whether `CCOCCNC(=O)Nc1nc(C)c(C#Cc2ccncc2)s1` has IC50 below 300 nM. Can you tell?
Marked response: Not fulfilled
